# assaySummary: growth modulation of vineyard yeast isolate – strain RM11-1a, OD600, basal, 24 h, primary screen (AID 1177);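 also: cultures grown under basal conditions with no added stressor; test concentration not given here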
# conditionDetails: S. cerevisiae RM11-1a growth, OD600, 24 h; higher = more signal, called active from +8 up or from −8 down
z-score vs 1: at or above is 1, below is -1.

Examples from the recorded data:
CC1(C)[C@@H]2CC(C(O)C3C=CC4C(=O)N(c5ccccc5)C(=O)C4N3Nc3ccccc3F)=C[C@@H]1C2 (some centres not stated)
-1
NC(=O)NCC#Cc1ccc2c(c1)[C@]1(C(=O)N2)[C@H](c2ccc(OCCO)cc2)N2[C@H](c3ccccc3)[C@H](c3ccccc3)OC(=O)[C@H]2[C@@H]1C(=O)N1CCN(c2ncccn2)CC1
1
CC(C)N1CC=CC23O[C@@H]4C=CCOC(=O)[C@@H]4[C@H]2C(=O)N(CCCCCCO)[C@@H]3C1=O (some centres not stated)
-1
[N-]=[N+]=Nc1ccccc1[C@H]1OC(c2ccc(OCCCO)cc2)=N[C@@]1(Cc1ccccc1)C(=O)NCc1ccccc1
-1
CCCC=C(CCC)[C@@H](NC(=O)Cc1ccccc1)c1ccc(C(=O)OC)cc1
1

Inquiry: API: above_or_equal(metric=z-score, cutoff=1) for item "CN(C)C(=O)[C@@]1(CCC(=O)OC(C)(C)C)COC(c2ccc(OCCCO)cc2)=N1"
Reply text: -1

Inquiry: // inclusive: z-score at least 1? input: "CO[C@H]1O[C@H](CO)[C@@H](OC(=O)Nc2cccc(F)c2)[C@H](OC(=O)Nc2ccc3c(c2)OCO3)[C@H]1OC(=O)Nc1ccc2c(c1)OCO2"
Reply text: 1

----------
# assaySummary: forskolin-driven CRE-LacZ activity in PC12 – cell-based, CRE-LacZ reporter, forskolin-stimulated, primary screen (AID 1146);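 also: PC12 cells with 6xCRE LacZ reporter stimulated by forskolin 10 µM; beta-galactosidase reporter signal reflecting CREB driven transcription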
# conditionDetails: luminescence, 4.5 h, higher = more signal, called active from +8 up or from −8 down
Binary classification by z-score, with -0.5 as an inclusive lower bound for label 1; all other cases are label 0.

Examples from the recorded data:
COC(=O)[C@@]1(Cc2ccc(OC)cc2)[C@H]2c3cc(C(=O)N4CCCC4)n(CCc4ccc(O)c(OC)c4)c3C[C@H]2CN1C(=O)c1ccccc1
label 1
CN(C)CCCNC(=O)[C@@]1(Cc2ccccc2I)c2ccccc2C(=O)N(Cc2ccccc2Cl)[C@H]1c1ccc(CO)cc1
label 1
CC(C)NC(=O)[C@@H]1c2ccccc2C(=O)N(Cc2cc(C(F)(F)F)cc(C(F)(F)F)c2)[C@H]1c1ccc(CO)cc1
label 1
CC(C)c1ccc(NN2C(C(O)c3ccccn3)C=CC3C(=O)N(c4ccccc4)C(=O)C32)cc1 (centres undefined)
label 1
C=CC[C@]1(C(=O)N2CCOCC2)N=C(c2ccc(OCCCO)cc2)O[C@H]1c1ccccc1CN=[N+]=[N-]
label 0

Inquiry: I'd appreciate it if you could say whether CCCc1cc2c(n1Cc1ccc(OC)cc1)C(C)C1CN(C(=O)c3ccccc3)C(C)(C(=O)OC)C21 (centres undefined) has z-score at least equal to -0.5.
Reply text: label 1

Inquiry: In plain terms: is recorded z-score at least -0.5 for "COCCCNC(=O)[C@@]1(Cc2ccccc2I)c2ccccc2C(=O)N(Cc2ccccc2Cl)[C@H]1c1ccc(CO)cc1" ?
Reply text: label 0

Inquiry: Does the compound "CCCN1C(=O)[C@@]2(Cc3ccccc3)N=C(c3ccc(OCCCO)cc3)O[C@H]2c2ccccc21" have recorded z-score that is -0.5 or more?
Reply text: label 0

Inquiry: Could you tell me if the measured z-score of CC1(C)[C@@H]2CC(C(O)C3C=CC4C(=O)N(c5ccccc5)C(=O)C4N3Nc3ccccc3F)=C[C@@H]1C2 (some centres undefined) reaches -0.5 or more?
Reply text: label 0

Inquiry: Confirm if z-score reported for the compound C[C@H]1NC(=O)C([C@@H](C)OCc2ccccc2)NC(=O)[C@@]23C(=O)N[C@@H](Cc4ccccc4)C2[C@H](C)[C@@]2(C)O[C@H]2C3/C=C/CC/C=C/CNC1=O (some centres undefined) is -0.5 or above.
Reply text: label 0

----------
# systemName: Luciferin 4-monooxygenase (Photinus pyralis) (UniProt P08659)
# Sequence (P08659 whole entry, looked up): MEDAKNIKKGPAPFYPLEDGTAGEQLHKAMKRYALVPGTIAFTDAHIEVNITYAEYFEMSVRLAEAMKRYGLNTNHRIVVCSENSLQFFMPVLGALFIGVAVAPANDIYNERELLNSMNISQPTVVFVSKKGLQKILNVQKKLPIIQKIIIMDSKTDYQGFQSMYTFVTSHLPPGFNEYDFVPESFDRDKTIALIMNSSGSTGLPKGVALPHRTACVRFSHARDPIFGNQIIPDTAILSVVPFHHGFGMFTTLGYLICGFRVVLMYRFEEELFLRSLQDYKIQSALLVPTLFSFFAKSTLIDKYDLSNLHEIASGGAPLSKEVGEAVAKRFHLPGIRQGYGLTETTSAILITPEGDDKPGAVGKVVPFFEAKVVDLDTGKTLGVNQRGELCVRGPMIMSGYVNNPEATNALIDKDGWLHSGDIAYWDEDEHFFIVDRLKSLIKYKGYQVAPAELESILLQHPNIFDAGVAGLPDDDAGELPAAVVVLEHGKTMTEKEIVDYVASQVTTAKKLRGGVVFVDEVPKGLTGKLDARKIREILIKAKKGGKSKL
# assaySummary: inhibition of purified Photinus pyralis luciferase – biochemical, luminescence, purified enzyme, 2006 set, primary screen (AID 1141);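 also: cell-free assay with purified firefly luciferase at 100 ng per well in PBS; test concentration not given here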
# conditionDetails: purified firefly luciferase, SteadyGlo luminescence, 30 min; higher = more signal, called active from +8 up or from −8 down
endpoint: z-score
One number for each entry.

Answer for every listed entry: what is its z-score? The entries follow.
1. COCCOC(=O)N1C(=O)[C@@]2(c3cc(C#Cc4ccc(OC)cc4)ccc31)[C@H](C(=O)N1CCc3cc(OC)c(OC)cc3C1)[C@H]1C(=O)O[C@H](c3ccccc3)[C@H](c3ccccc3)N1[C@@H]2c1ccc(OCCO)cc1
2. COc1ccc(CCNC(=O)[C@@H]2c3ccccc3C(=O)N(Cc3ccccc3)[C@H]2c2ccc(CO)cc2)cc1
3. O=C(C=C(CC(O)c1cccc(Cl)c1)OCCF)OCCF (configuration not stated)
4. CC(C)CCC[C@@H](C)[C@H]1CC[C@@]2(C)C3=C(CC[C@]12C)[C@@]1(C)CC[C@H](OC(=O)c2ccc(N)cc2)C(C)(C)C1CC3 (some centres not stated)

Reply text:
-1.23
0.582
0.364
-1.43

Provide reported z-score for each item, in the same order as listed.
1. COC(=O)c1c(CC[C@@H](CO)NC(=O)N[C@@H](C)Cn2cc(C3(O)CCCC3)nn2)oc(C(C)=O)c1C(=O)OC
2. NC(=O)[C@H]1[C@@H]2C(=O)O[C@@H](c3ccccc3)[C@@H](c3ccccc3)N2[C@@H](c2ccc(O)cc2)[C@]12C(=O)Nc1ccc(C#CC3(O)CCCCCC3)cc12

Reply text:
1: 0.315; 2: 0.268

Inquiry: Consider the compound "O=C1O[C@@H](c2ccccc2)[C@@H](c2ccccc2)N2[C@@H](c3ccc(O)cc3)[C@]3(C(=O)Nc4ccc(C#CC5(O)CCCCCC5)cc43)[C@@H](C(=O)N3CCN(c4ncccn4)CC3)[C@H]12" and give its recorded z-score.
Reply text: 1.04

----------
Field: z-score. Provide a value for each of the compounds that follow.
# assaySummary: plasmodial surface anion channel blockers, osmotic lysis – cell-based, P. falciparum Indochina, OD700, 18 h, primary screen (AID 1157)
# conditionDetails: P. falciparum Indochina infected erythrocytes, osmotic lysis OD700, 18 h; higher = more signal, called active from +8 up or from −8 down
Numbers only.

Consider the reported z-score for these compounds:
C[C@H]1NC(=O)C([C@@H](C)OCc2ccccc2)NC(=O)[C@@]23C(=O)N[C@@H](Cc4ccccc4)C2[C@H](C)[C@@]2(C)O[C@H]2C3/C=C/CC/C=C/CNC1=O (stereo partly drawn)
0.107
C[C@@]1([C@@H](NC(=O)c2cccs2)c2ccc(-c3ccccc3)cc2)C[C@H]1C1CCCCC1
-1.34
CCN(CC)c1ccc(N2CC=CC34O[C@@H]5/C=C\CCCOC(=O)C5[C@H]3C(=O)N(CCCCCCO)[C@@H]4C2=O)cc1 (stereo partly drawn)
-0.354

Look at each compound and report its z-score.
1. CCC[C@@H]1C[C@@]1(CCC)[C@@H](NC(=O)c1ccco1)c1ccc(Cl)cc1
2. O=C(Nc1cc(Br)ccc1C(=O)NCc1cccc(O)c1)c1ccccc1
3. Cc1ccc(S[C@]2(C(=O)O)CC(=O)N(Cc3ccccc3C(F)(F)F)[C@@H]2c2ccc(CO)cc2)cc1

Reply text:
[0.469, 2.17, 0.231]

For every listed record, write down its z-score.
1. C=C(/C(=C/C[C@@H](OC(C)=O)c1ccccc1OCCO)c1cnc2ccccc2c1)C(C)C
2. Cc1ccc(F)cc1S(=O)(=O)N[C@@H]1CCN(C(=O)c2ccc(OC(C)C)cc2)C1

Reply text:
1: 1.04; 2: 0.427

----------
# System: Plasmodium falciparum Sir2 (PF13_0152, Sir2A)
# assaySummary: Plasmodium falciparum Sir2A binding compounds – biochemical, small-molecule microarray, 635 nm fluorescence, primary screen (AID 1098);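 also: score merges spot fluorescence intensity with its signal-to-noise ratio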
# conditionDetails: fluorescence 635 nm, higher = more signal
endpoint: composite z-score

COCCCNC(=O)[C@@]1(Cc2ccccc2)COC(c2ccc(OCCCO)cc2)=N1
1.7
COCCOC(=O)N1C(=O)[C@@]2(c3cc(C#CCNC(N)=O)ccc31)[C@H](C(N)=O)[C@H]1C(=O)O[C@H](c3ccccc3)[C@H](c3ccccc3)N1[C@@H]2c1ccc(OCCO)cc1
1.05
COC(=O)[C@@]1(Cc2ccc(F)cc2)[C@H]2c3cc(C(=O)N(C)C)n(Cc4ccc(C)c(F)c4F)c3C[C@H]2CN1C(=O)c1ccccc1
0.0477

Shifting focus to the molecule that follows.
Inquiry: Enter recorded composite z-score with Plasmodium falciparum Sir2 (PF13_0152, Sir2A) for O=C1CSC(c2cccc([N+](=O)[O-])c2)N1c1ccccc1 (centres undefined) here.
Reply text: -0.125

----------
# assaySummary: probe aDKK1 binding to arrayed compounds – biochemical, biotinylated probe, 635/667 nm fluorescence, primary screen (AID 1099);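 also: score merges 667nm spot fluorescence with signal to noise across triplicate slides; reference of the scale not given here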
# conditionDetails: small-molecule microarray, higher = more signal
Returns one of YES or NO; YES when composite z-score is >= 0.2.

CCOC(=O)C[C@H]1[C@H](OC(=O)Cc2ccc3c(c2)OCO3)[C@@H](NC(=O)c2ccccc2)c2cc(OCCCO)ccc2N1C(=O)c1ccc2ccccc2n1
NO
COC(=O)C(CC#Cc1ccc2c(c1)[C@]1(C(=O)N2)[C@H](C(=O)N2CCc3cc(OC)c(OC)cc3C2)[C@H]2C(=O)O[C@H](c3ccccc3)[C@H](c3ccccc3)N2[C@@H]1c1ccc(O)cc1)C(=O)OC
YES
C[N+](C)(C)CCCCCCNC(=O)[C@@H]1C[C@@H]2C(=O)NCC(=O)N2[C@@H]1c1cccc(OCCO)c1
NO

Inquiry: Entry "CC(C)CN1C(=O)[C@@]2(Cc3ccccc31)c1ccccc1C(=O)N(Cc1ccccc1)[C@H]2c1ccc(CO)cc1" : is its composite z-score no less than 0.2?
Reply text: YES

Inquiry: composite z-score >= 0.2 for "COCCOC(=O)N1C(=O)[C@@]2(c3ccccc31)[C@H](c1ccccc1OCCO)N1[C@H](c3ccccc3)[C@H](c3ccccc3)OC(=O)[C@H]1[C@@H]2C(=O)N1CCc2cc(OC)c(OC)cc2C1" ?
Reply text: NO

All figures here come from PubChem BioAssay.
